These measurements were taken from the Human Domainome abundance scans (Beltran et al. 2025).

B1: Protein S100-G, residues 1 to 79; numbered along this chain, P02633 (parent)
chain: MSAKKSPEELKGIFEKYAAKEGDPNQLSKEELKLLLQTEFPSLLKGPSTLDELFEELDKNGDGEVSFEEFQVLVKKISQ

- Variants of: B1
- assay protocol: abundance fitness (aPCA) (normalised: wild type 0, dead -1); higher = more abundant; growth selection in yeast, the domain comes from the species named
- measurement context: Bos taurus
Short version: abundance fitness at least -0.07 is Condition met, less is Condition not met.

Please review the entries below; each comes with its answer.
change | group
S28W | Condition not met
M1E | Condition not met
F14H | Condition not met
E31I | Condition met
K59W | Condition met

Exam item: decide whether the reported abundance fitness for Q37F is at least -0.07.
Condition met

Does the variant K16G have recorded abundance fitness that is -0.07 or more?
Condition not met
